# Applied conditions: buffer; pH 7.4; 200.0 µM
# solubility kinetic listing for each entry below

Compound: CN1C(C)(C)CC(NC(=O)c2ccco2)CC1(C)C
solubility kinetic: > 39.7 µg/mL

Compound: Nc1ncnc(Nc2c(F)cccc2F)n1
solubility kinetic: > 33.5 µg/mL

Compound: Cc1ccc(C(=O)N2CCN(c3ccccn3)CC2)cc1
solubility kinetic: > 42.2 µg/mL

Compound: COC(=O)c1ccc(NC(=S)N2CCN(CCO)CC2)cc1
solubility kinetic: > 48.5 µg/mL

Compound: OC(CNCc1ccc2c(c1)OCO2)COc1ccccc1 (centres undefined)
solubility kinetic: > 45.2 µg/mL

Compound: CC(C)[C@H](NS(=O)(=O)c1ccccc1)C(=O)OCC(=O)NC(=O)NC1CCCCC1
solubility kinetic: > 65.9 µg/mL

Compound: CC(C)c1ccc(NC(=S)NN2CCN(C)CC2)cc1
solubility kinetic: > 43.9 µg/mL

Compound: O=C(NC1CC1)C1CCN(c2ncccn2)CC1
solubility kinetic: > 36.9 µg/mL

Compound: S=C1SCN(Cc2ccco2)CN1Cc1ccco1
solubility kinetic: > 44.2 µg/mL

====

# solubility kinetic listing for each entry below
# Applied conditions: buffer; pH 7.4; 200.0 µM

Molecule: FC(F)(F)c1cccc(NC(=S)N2CCCC2)c1
solubility kinetic: > 0.0411 mg/mL

Molecule: CCOC(=O)C1CCCN(CCC(=O)Nc2ccccc2C)C1.Cl (stereo not drawn)
solubility kinetic: > 0.0532 mg/mL

Molecule: O=C(O)c1cc(-c2ccccc2Cl)n(-c2ccc(F)cc2)n1
solubility kinetic: > 0.0475 mg/mL

Molecule: O=[N+]([O-])/C(=C\Nc1ccc(F)cc1F)S(=O)(=O)c1ccccc1
solubility kinetic: > 0.051 mg/mL

Molecule: N#Cc1ccccc1OCC(=O)OCC(=O)NC1CC1
solubility kinetic: > 0.0411 mg/mL

Molecule: COc1ccc(Sc2nc(-c3ccccc3)ncc2OC)cc1
solubility kinetic: < 0.0003 mg/mL

Molecule: CN1CCCN(C(=O)COc2ccc(F)cc2Cl)CC1
solubility kinetic: > 0.0451 mg/mL

Molecule: N#C/C(=C(/O)CN1CCCC1)c1nc(-c2ccccc2)cs1
solubility kinetic: > 0.0467 mg/mL

Molecule: CCOC(=O)C1CCN(C(=O)/C=C/c2ccc3c(c2)OCO3)CC1
solubility kinetic: > 0.0497 mg/mL

Molecule: O=C(CN1CCN(Cc2ccc(F)cc2)CC1)Nc1ccccc1F
solubility kinetic: > 0.0518 mg/mL

Molecule: COCCSc1nnc(NC(=O)c2ccco2)s1
solubility kinetic: > 0.0428 mg/mL

Molecule: COc1ccc(NC(=S)NCc2ccccn2)cc1OC
solubility kinetic: > 0.0455 mg/mL

Molecule: COC(=O)[C@H](CC(C)C)NC(=O)Nc1ccccc1F
solubility kinetic: > 0.0423 mg/mL

Molecule: COc1ccc(C(C)NC(=O)c2ccncc2)cc1OC (stereo not drawn)
solubility kinetic: > 0.0429 mg/mL

Molecule: Cl.OCCNc1nc(N2CCCCC2)nc2ccccc12
solubility kinetic: > 0.0463 mg/mL

Molecule: CN(CC(=O)Nc1ccccc1C(F)(F)F)C(=O)CSc1nnc(-c2ccncc2)n1C
solubility kinetic: > 0.0697 mg/mL

Molecule: COC(=O)c1c(C)[nH]c(C)c1C(C)=O
solubility kinetic: > 0.0293 mg/mL

Molecule: O=c1oc(-c2ccco2)nc2sc3c(c12)CCCCC3
solubility kinetic: < 0.0006 mg/mL

Molecule: CCOC(=O)C1CCN(c2ccc([N+](=O)[O-])c(C(C)=O)c2)CC1
solubility kinetic: > 0.0481 mg/mL

Molecule: Cc1cc(=O)[nH]c(SCC(=O)NC(C)C2CC3CCC2C3)c1C#N (stereo not drawn)
solubility kinetic: > 0.0518 mg/mL

Molecule: COc1cc(C=O)ccc1OCC(=O)N1CCCC1
solubility kinetic: > 0.0395 mg/mL

Molecule: O=C(NC(=O)C(F)(F)F)Nc1ccc(S(=O)(=O)Nc2nccs2)cc1
solubility kinetic: > 0.0592 mg/mL

Molecule: O=C(Nc1ccc(Br)cc1)c1cnc[nH]1
solubility kinetic: > 0.0399 mg/mL

====

# Applied conditions: buffer; pH 7.4; 200.0 µM
# if value of solubility kinetic reaches 20 µg/mL, tag T; if it stays below, tag F

Compound: O=C(N/N=C/c1cccnc1)c1cccc(Cl)c1
Classification: T

Compound: O=C(NC12CC3CC(CC(C3)C1)C2)c1c(Cl)cccc1Cl
Classification: F

Compound: COc1ccc(CNC/C=C/c2ccccc2)cc1.Cl
Classification: T

Compound: Oc1cccc2ccc(N3CCOCC3)nc12
Classification: T

Compound: COC(=O)c1cn(C(=O)c2cc(Cl)ccc2Cl)c2ccccc12
Classification: F

Compound: CC1CC(CN)CC(CO)C1 (stereo unspecified)
Classification: T

Compound: CS(=O)(=O)N1CCc2cc(C(=O)Nc3cccc([N+](=O)[O-])c3)ccc21
Classification: F

Compound: O=C(c1ccccc1)n1c(=O)c(F)cn(COCCBr)c1=O
Classification: T

Compound: Cc1ccc(S(=O)(=O)NCc2ccccn2)c(C)c1
Classification: T

Compound: CCN(C(=O)CSc1ncccc1C(=O)O)C1CCCCC1
Classification: T

Compound: O=C(NCc1ccc(F)cc1)c1ccc(Br)o1
Classification: T

Compound: O=C(O)CSc1ncccn1
Classification: T

Compound: CCOc1ccccc1CN1C(=O)NC2(CCCCCC2)C1=O
Classification: T

Compound: COc1ccc(CNc2nc(Cl)c(C#N)s2)cc1
Classification: F

Compound: Cc1ccc(NC(=O)C2CCN(S(=O)(=O)c3cc([N+](=O)[O-])ccc3Cl)CC2)nc1
Classification: F

Compound: COc1ccccc1N1CCN(CC(O)c2c(C)[nH]c3ccccc23)CC1 (stereo unspecified)
Classification: T

Compound: Cc1onc(-c2c(F)cccc2Cl)c1C(=O)NCCO
Classification: T

Compound: CC(=O)NC1=NN(C(C)=O)C(C)(c2cccnc2)S1 (stereo unspecified)
Classification: T

Compound: CCNc1ccc(S(=O)(=O)N(C)C)cc1[N+](=O)[O-]
Classification: T

Compound: CCC(NC(=S)NC1CCCCC1)c1ccccc1 (stereo unspecified)
Classification: F

Compound: O=C(OCC(=O)N1CCCC1)c1ccc(O)cc1
Classification: T

Compound: COc1ccc2[nH]c(C(=O)NCCc3ccccc3)cc2c1
Classification: F

Compound: CC(=O)/C(=C\N(C)C)Sc1ccc(Cl)cc1
Classification: F

Compound: CCCOc1ccc(C(=O)NCCC(=O)NCCCC(=O)O)cc1
Classification: T

Compound: CCNc1nc(NCc2ccccc2)nc(SCC(N)=O)n1
Classification: T

Compound: O=C(Cc1ccccc1)N1CCN(CCCc2ccccc2)CC1.O=C(O)C(=O)O
Classification: T

Compound: CN1CCN(c2nc3c(c(=O)[nH]2)CCC3)CC1
Classification: T

Compound: C=CCn1c(NC(=O)c2ccccc2)nc2ccccc21
Classification: F

Compound: COC(=O)C(C)Oc1ccc(Cl)c(CN2OCC(C)(C)C2=O)c1 (stereo unspecified)
Classification: T

Compound: CSC1=NC2(C[C@H]2c2ccccc2)C(=O)N1C (stereo partly specified)
Classification: T

Compound: O=C(COC(=O)Cc1cccc(C(F)(F)F)c1)NC(=O)NC1CCCC1
Classification: T

Compound: Cc1c(OCC(N)=O)ccc2c(-c3ccccc3)cc(=O)oc12
Classification: F

Compound: Cc1ccsc1CNCCc1ccc(F)cc1
Classification: T

====

# solubility kinetic listing for each entry below
# Applied conditions: buffer; pH 7.4; 200.0 µM

Compound: O=C(CCCn1cc([N+](=O)[O-])cn1)N1CCCCC1
Operator: >
solubility kinetic / µg/mL: 39.9
--
Compound: O=C(NCc1cccc(F)c1F)C1CCC(=O)N(C2CC2)C1 (stereo not given)
Operator: =
solubility kinetic / µg/mL: 38.1
--
Compound: COc1ccc(NC(=O)CN2CCN(c3ccccc3C)CC2)cc1
Operator: =
solubility kinetic / µg/mL: 35.5
--
Compound: COc1ccc(C(C)=O)cc1CSC(=N)N.Cl
Operator: >
solubility kinetic / µg/mL: 41.2
--
Compound: Cc1ccc(OCCNC(=O)c2cc(=O)[nH]c3ccccc23)cc1
Operator: =
solubility kinetic / µg/mL: 2

====

# solubility kinetic listing for each entry below
# Applied conditions: buffer; pH 7.4; 200.0 µM
Measured parameter: solubility kinetic

Molecule: Cc1ccccc1OCC(=O)Nc1cnn(CCCC(=O)O)c1
Result: > 47.6 µg/mL
--
Molecule: O=C(NC1CCCC1)C1CCN(C(=O)NCc2ccccc2)CC1
Result: > 49.4 µg/mL
--
Molecule: CCOC(=O)c1ccc(NC(=O)NCCc2cnc[nH]2)cc1
Result: > 45.3 µg/mL
--
Molecule: Cc1ccc2nc(NS(=O)(=O)c3cn(C)nc3C)sc2c1
Result: > 48.4 µg/mL
--
Molecule: COc1cccc(C(=O)Nc2cccnc2)c1OC
Result: > 38.7 µg/mL
--
Molecule: Cc1nnc(NC(=O)CS(=O)(=O)Cc2ccccc2)s1
Result: > 46.7 µg/mL
--
Molecule: CC1CN(c2nc(Nc3ccccc3F)nc(N)c2[N+](=O)[O-])CC(C)O1 (stereo not given)
Result: > 54.4 µg/mL
--
Molecule: Cl.Fc1ccccc1Nc1nc(Cl)nc(Cl)n1
Result: > 44.3 µg/mL
--
Molecule: O=C1CS/C(=N/N=C/c2ccncc2)N1
Result: > 33 µg/mL
--
Molecule: CCOC(=O)c1c(-c2ccc(OC)cc2)cn2ccccc12
Result: < 0.6 µg/mL
